- target.or.system: Proprotein convertase subtilisin/kexin type 6 (Homo sapiens)
- Sequence (P29122 whole entry): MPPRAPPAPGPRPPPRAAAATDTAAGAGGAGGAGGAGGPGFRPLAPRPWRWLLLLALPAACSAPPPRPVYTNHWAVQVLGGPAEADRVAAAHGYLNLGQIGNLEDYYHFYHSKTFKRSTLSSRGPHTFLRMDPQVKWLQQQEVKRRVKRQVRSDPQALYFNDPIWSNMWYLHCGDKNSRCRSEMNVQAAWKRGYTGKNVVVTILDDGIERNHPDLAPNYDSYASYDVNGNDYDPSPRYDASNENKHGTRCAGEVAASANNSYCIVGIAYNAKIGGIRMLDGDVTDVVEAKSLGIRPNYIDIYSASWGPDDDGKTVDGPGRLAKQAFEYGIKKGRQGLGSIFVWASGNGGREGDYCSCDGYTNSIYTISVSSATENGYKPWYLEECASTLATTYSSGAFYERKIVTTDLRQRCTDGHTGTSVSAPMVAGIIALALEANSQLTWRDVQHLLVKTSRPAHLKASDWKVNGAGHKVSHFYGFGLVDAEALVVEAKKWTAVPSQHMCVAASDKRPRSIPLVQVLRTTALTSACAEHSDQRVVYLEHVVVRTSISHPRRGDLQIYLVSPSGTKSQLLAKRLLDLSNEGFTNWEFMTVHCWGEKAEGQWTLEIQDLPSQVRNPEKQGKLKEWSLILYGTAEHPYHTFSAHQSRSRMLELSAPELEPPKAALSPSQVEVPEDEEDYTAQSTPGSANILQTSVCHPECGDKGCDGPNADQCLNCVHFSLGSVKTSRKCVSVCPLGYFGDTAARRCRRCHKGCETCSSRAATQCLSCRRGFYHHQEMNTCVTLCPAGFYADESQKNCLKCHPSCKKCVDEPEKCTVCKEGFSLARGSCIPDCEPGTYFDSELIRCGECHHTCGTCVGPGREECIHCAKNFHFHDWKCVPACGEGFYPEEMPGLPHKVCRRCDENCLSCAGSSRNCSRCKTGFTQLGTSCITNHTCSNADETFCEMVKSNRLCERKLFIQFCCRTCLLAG
- test: Inhibition of recombinant human PACE4 expressed in drosophila S2 cells using pyrGlu-Arg-Thr-Lys-Arg-7-amido-4-methylcoumarin as substrate after 60 mins by spectrofluorometry method
Peptide text beside a SMILES is read from it. * marks the point of attachment. NH(4-amidinobenzyl) = N=C(N)c1ccc(CN*)cc1
// assign Y if Ki falls strictly below 8 nM, else N (ties count as N)

Task item: For this molecule, is Ki lower than 8 nM? CC(=O)N[C@@H](CC(C)C)C(=O)N[C@@H](CC(C)C)C(=O)N[C@@H](CC(C)C)C(=O)N[C@@H](Cc1c[nH]c2ccccc12)C(=O)N[C@@H](CCCNC(=N)N)C(=O)N[C@H](C(=O)N[C@@H](CCCCN)C(=O)NCc1ccc(C(=N)N)cc1)C(C)C (Ac-LLLWRVK-{NH(4-amidinobenzyl)})
Reply: Y

Task item: Next molecule up: CC(=O)N[C@@H](CC(C)C)C(=O)N[C@@H](CC(C)C)C(=O)N[C@@H](CC(C)C)C(=O)N[C@H](C(=O)N[C@@H](CCCNC(=N)N)C(=O)N[C@H](C(=O)N[C@@H](CCCCN)C(=O)NCc1ccc(C(=N)N)cc1)C(C)C)C(C)C (Ac-LLLVRVK-{NH(4-amidinobenzyl)})
Reply: Y

Task item: Likewise for CC(=O)N[C@@H](CC(C)C)C(=O)N[C@@H](CC(C)C)C(=O)N[C@@H](CC(C)C)C(=O)NCC(=O)N[C@@H](CCCNC(=N)N)C(=O)N[C@H](C(=O)N[C@@H](CCCCN)C(=O)NCc1ccc(C(=N)N)cc1)C(C)C (Ac-LLLGRVK-{NH(4-amidinobenzyl)}) ?
Reply: N

Task item: Again, but for CC(=O)N[C@@H](CO)C(=O)N[C@@H](CC(C)C)C(=O)N[C@@H](CC(C)C)C(=O)N[C@@H](CC(C)C)C(=O)N[C@@H](CCCNC(=N)N)C(=O)N[C@H](C(=O)N[C@@H](CCCCN)C(=O)NCc1ccc(C(=N)N)cc1)C(C)C (Ac-SLLLRVK-{NH(4-amidinobenzyl)})
Reply: Y

Task item: What about CC(=O)N[C@@H](CC(C)C)C(=O)N[C@@H](CC(C)C)C(=O)NCC(=O)N[C@@H](CC(C)C)C(=O)N[C@@H](CCCNC(=N)N)C(=O)N[C@H](C(=O)N[C@@H](CCCCN)C(=O)NCc1ccc(C(=N)N)cc1)C(C)C (Ac-LLGLRVK-{NH(4-amidinobenzyl)}) ?
Reply: N

Task item: Also CC(=O)N[C@@H](CC(C)C)C(=O)N[C@@H](Cc1cnc[nH]1)C(=O)N[C@@H](CC(C)C)C(=O)N[C@@H](CC(C)C)C(=O)N[C@@H](CCCNC(=N)N)C(=O)N[C@H](C(=O)N[C@@H](CCCCN)C(=O)NCc1ccc(C(=N)N)cc1)C(C)C (Ac-LHLLRVK-{NH(4-amidinobenzyl)}) ?
Reply: Y
